EXPERIMENTAL_TARGET: T1, soluble recombinant G protein (amino acids 66-292 of the 18537 strain sequence) (RSV strain 18537 (subtype B), UniProt P20896 66-292)
T1 construct: also called G(B); recombinant protein G
T1 sequence: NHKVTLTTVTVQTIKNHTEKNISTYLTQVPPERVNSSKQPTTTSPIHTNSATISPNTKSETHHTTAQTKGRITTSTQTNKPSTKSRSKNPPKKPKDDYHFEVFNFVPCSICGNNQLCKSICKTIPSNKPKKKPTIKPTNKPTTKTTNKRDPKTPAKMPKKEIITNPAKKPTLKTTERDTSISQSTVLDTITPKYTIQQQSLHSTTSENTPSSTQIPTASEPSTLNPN
PROTOCOL: SPR (Biacore 3000), Fab over immobilised recombinant antigen;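 also: antigen immobilised on CM5 chip at very low density (about 50 RU), rate constants fitted globally with a 1:1 Langmuir model, Fabs obtained by enzymatic cleavage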
MEASUREMENT_TYPE: koff
Write the numeric value and append its unit.

Batch lookup, koff per entry.
1. Fab fragment of antibody from clone 838 (Fab, V domains shown, also called Fab clone 838; 838 (G)) VH: QVQLVESGGGVVQPGTSLRLSCAASGFTFSTFGMHWVRQAPGKGLEWVAVISYDGNKKYYADSVKGRFTISRDNSKNTLYLQVNSLRVEDTAVYYCAAQTPYFNESSGLVPDWGQGTLVTVSS VL: DIQMTQSPSSLSASVGDRVSITCRASQGISNYLAWYQQKPGKVPKLLIYAASTLQSGVPSRFSGSGSGTDFTLTISSLQPEDVATYYCQKYNSAPQTFGQGTKVEIKR
2. Fab fragment of antibody from clone 859 (Fab, V domains shown, also called Fab clone 859; 859 (G)) VH: QVQLVESGGGVVQPGRSLRLSCAVSGSSFSKYGIHWVRQAPGKGLEWVAVISYDGSKKYFTDSVKGRFTIARDNSQNTVFLQMNSLRAEDTAVYYCATGGGVNVTSWSDVEHSSSLGYWGLGTLVTVSS VL: DIQMTQSPSSLSASVGDRVTITCRASQGIRNYLAWYQQKPGKVPKLLVFAASTLQSGVPSRFSGSGSGTDFTLTISSLQPEDVATYYCQRYNSAPLTFGGGTKVEIKR
3. Fab fragment of antibody from clone 816 (Fab, V domains shown) VH: EVQLLESGGGLVQPGGSLRLSCVASGFTFSTYAMTWVRQAPGKGLEWVSVIRASGDSEIYADSVRGRFTISRDNSKNTVFLQMDSLRVEDTAVYFCANIGQRRYCSGDHCYGHFDYWGQGTLVTVSS VL: DIVMTQSPLSLPVTPGEPASISCRSSQSLLHSDGRYYVDWYLQKPGQSPHLLIYLASNRASGVPDRFTGSGSGTDFTLKISRVEAEDVGVYYCMQGLHTPWTFGQGTKVDIKR

Result:
["5.06e-05 s⁻¹", "4.63e-05 s⁻¹", "0.000178 s⁻¹"]
